Measured on: recombinant human FLAP protein (Homo sapiens)
Assay protocol: FLAP binding assay (Scintillation Proximity Assay, displacement of [125I]L-691,831)
Setup conditions: read-out: FLAP SPA IC50
Metric: log10 IC50 (log10 of the value in nM)
Would you kindly interpret these values as log10 of IC50 expressed in nM?

Return reported log10 IC50. Input molecule: CN(C)CCn1cc(-c2nc([C@](C)(c3ccc(-c4cnc(N)cn4)nc3)C3CC3)no2)cn1
2.08

Return reported log10 IC50. Input molecule: CC(C)C(C)(c1ccc(-c2cnc(N)nc2)nc1)c1noc(-c2cnn(C(C)(C)CO)c2)n1 (stereo not shown)
0.93

Return reported log10 IC50. Input molecule: CC(C)(O)Cn1cc(-c2nc([C@@](C)(c3ccc(-c4cnc(N)cn4)nc3)C3CC3)no2)cn1
1.72

Return reported log10 IC50. Input molecule: CN(C)C(=O)Cn1cc(-c2nc([C@@](C)(c3ccc(-c4ccc(N)nc4)nc3)C3CC3)no2)cn1
1.64

Return reported log10 IC50. Input molecule: CC(C)C(C)(c1ccc(-c2cnc(N)nc2)nc1)c1noc(-c2cnn(CC(C)(C)C(=O)O)c2)n1 (stereo not shown)
1.31

Return reported log10 IC50. Input molecule: CC(C)Nc1cnc(-c2nc([C@@](C)(c3ccc(-c4cnc(N)nc4)nc3)C(C)C)no2)cn1
1.18

Return reported log10 IC50. Input molecule: CNc1cnc(-c2ccc(C(C)(c3noc(-c4cnn(CC(C)(C)O)c4)n3)C3CC3)cn2)cn1 (stereo not shown)
1.18

====

Measured on: recombinant human FLAP protein (Homo sapiens)
Sequence (P20292 1-161): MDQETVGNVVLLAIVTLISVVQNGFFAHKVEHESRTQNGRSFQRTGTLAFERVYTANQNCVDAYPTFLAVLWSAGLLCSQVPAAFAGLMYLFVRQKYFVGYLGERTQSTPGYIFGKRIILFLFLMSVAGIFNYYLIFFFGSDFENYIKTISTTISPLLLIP
Assay protocol: FLAP binding assay (Scintillation Proximity Assay, displacement of [125I]L-691,831)
Setup conditions: read-out: FLAP SPA IC50
Metric: IC50

Return reported IC50. Input molecule: CC(C)Nc1cnc(-c2nc(C(C)(c3ccc(-c4cnc(N)nc4)nc3)C(C)C)no2)cn1 (stereo not shown) [Example 16]
2.3 nM

Return reported IC50. Input molecule: CC(C)NC(=O)Cn1cc(-c2nc([C@@](C)(c3ccc(-c4cnc(N)nc4)nc3)C(C)C)no2)cn1 [Example 142]
16 nM

Return reported IC50. Input molecule: CC(C)[C@](C)(c1ccc(-c2cnc(N)cn2)nc1)c1noc(-c2cnn(CC(=O)N(C)C)c2)n1 [Example 112]
4.8 nM

Return reported IC50. Input molecule: C=C(CO)n1cc(-c2nc(C(C)(c3ccc(-c4cnc(N)nc4)nc3)C3CC3)no2)cn1 (stereo not shown) [Example 65]
1.6 nM

====

Measured on: recombinant human FLAP protein (Homo sapiens)
Sequence (P20292 1-161): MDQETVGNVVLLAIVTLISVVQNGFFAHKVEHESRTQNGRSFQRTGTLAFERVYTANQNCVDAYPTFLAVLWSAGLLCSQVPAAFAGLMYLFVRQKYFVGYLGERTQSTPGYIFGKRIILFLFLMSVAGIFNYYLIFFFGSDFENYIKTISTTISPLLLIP
Assay protocol: FLAP binding assay (Scintillation Proximity Assay, displacement of [125I]L-691,831)
Setup conditions: read-out: FLAP SPA IC50
pIC50: −log10 of the molar value.
Each entry gets label 0 if its pIC50 stays under 7, and label 1 if its pIC50 is 7 or above.

Hello, I need to know if CC(C)(O)Cn1cc(-c2nc(C(C)(C)c3ccc(-c4cnc(N)nc4)nc3)no2)cn1 has measured pIC50 not below 7. Thanks!
label 0

Hello, I need to know if CC(C)(c1ccc(-c2cnc(N)nc2)nc1)c1noc(-c2cn[nH]c2)n1 has measured pIC50 not below 7. Thanks!
label 0

Hello, I need to know if CC(C)[C@](C)(c1ccc(-c2cnc(N)[nH]c2=O)nc1)c1noc(-c2cnn(CC(C)(C)O)c2)n1 has measured pIC50 not below 7. Thanks!
label 1

Hello, I need to know if CC(C)[C@](C)(c1ccc(-c2cnc(N)nc2)nc1)c1noc(-c2cnn(CC(=O)N3CCOCC3)c2)n1 has measured pIC50 not below 7. Thanks!
label 1

Hello, I need to know if CC(C)C(C)(c1ccc(-c2cnc(N)nc2)nc1)c1noc(-c2cnc(NC[C@H](C)O)cn2)n1 (stereo partly drawn) has measured pIC50 not below 7. Thanks!
label 1

Hello, I need to know if CC(C)[C@@](C)(c1ccc(-c2cnc(N)nc2)nc1)c1noc(-c2cnc(N3CCNCC3)cn2)n1 has measured pIC50 not below 7. Thanks!
label 1

Hello, I need to know if Cn1cc(-c2nc([C@@](C)(c3ccc(-c4cnc(N)nc4)nc3)C3CC3)no2)cn1 has measured pIC50 not below 7. Thanks!
label 1

Hello, I need to know if CC(C)[C@](C)(c1ccc(-c2cnc(N)nc2)nc1)c1noc(-c2cn[nH]c2)n1 has measured pIC50 not below 7. Thanks!
label 1

Hello, I need to know if CC(C)[C@](C)(c1ccc(-c2cnc(N)nc2)nc1)c1noc(-c2cnn(C3COC3)c2)n1 has measured pIC50 not below 7. Thanks!
label 1

Hello, I need to know if CC(C)(O)Cn1cc(-c2nc([C@@](C)(c3ccc(-c4cnc(N)nc4C#N)nc3)C3CC3)no2)cn1 has measured pIC50 not below 7. Thanks!
label 0

====

Measured on: recombinant human FLAP protein (Homo sapiens, UniProt P20292)
Assay protocol: FLAP binding assay (Scintillation Proximity Assay, displacement of [125I]L-691,831)
Setup conditions: read-out: FLAP SPA IC50
pIC50: −log10 of the molar value.
Classification by pIC50 | ranges: bottom end (below 7), midrange (7 to below 8), top end (8 or more)

Hey, which category is CC(C)(O)Cn1cc(-c2nc(C(C)(c3ccc(-c4cnc5[nH]ccc5n4)nc3)C3CC3)no2)cn1 (stereo not drawn) in, do you know?
midrange

Hey, which category is C[C@@](c1ccc(-c2ccc(N)nc2)nc1)(c1noc(-c2cnn(C(CO)CO)c2)n1)C1CC1 in, do you know?
midrange

Hey, which category is COCCOCCn1cc(-c2nc([C@@](C)(c3ccc(-c4cnc(N)nc4)nc3)C(C)C)no2)cn1 in, do you know?
top end

Hey, which category is CC(C)[C@](C)(c1ccc(-c2cnc(N)nc2)nc1)c1noc(-c2cnn(CC(=O)N(C)C)c2)n1 in, do you know?
top end

Hey, which category is CC(C)[C@](C)(c1ccc(-c2ccc(N)nc2)nc1)c1noc(-c2cnn(C3COC3)c2)n1 in, do you know?
top end

Hey, which category is CN(C)CCn1cc(-c2nc([C@@](C)(c3ccc(-c4cnc(N)cn4)nc3)C3CC3)no2)cn1 in, do you know?
midrange

Hey, which category is CC(C)[C@@](C)(c1ccc(-c2cnc(N)nc2)nc1)c1noc(-c2cnn(CC(=O)N(C)C)c2)n1 in, do you know?
bottom end

Hey, which category is CC(C)(O)Cn1cc(-c2nc(C(C)(c3ccc(-c4cnc(N)c(F)c4)nc3)C3CC3)no2)cn1 (stereo not drawn) in, do you know?
bottom end

Hey, which category is COCCn1cc(-c2nc(C(C)(C)c3ccc(-c4cnc(N)nc4)nc3)no2)cn1 in, do you know?
bottom end

Hey, which category is CC(C)[C@](C)(c1ccc(-c2ccc(N)nc2)nc1)c1noc(-c2cnn(C)c2)n1 in, do you know?
top end

====

Measured on: recombinant human FLAP protein (Homo sapiens)
Sequence (P20292 1-161): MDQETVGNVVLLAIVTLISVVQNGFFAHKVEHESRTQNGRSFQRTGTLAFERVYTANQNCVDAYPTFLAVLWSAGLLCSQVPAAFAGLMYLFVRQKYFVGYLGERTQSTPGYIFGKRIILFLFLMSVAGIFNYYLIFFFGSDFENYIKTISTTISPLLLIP
Assay protocol: FLAP binding assay (Scintillation Proximity Assay, displacement of [125I]L-691,831)
Setup conditions: read-out: FLAP SPA IC50
pIC50: −log10 of the molar value.
Each entry gets Not met if its pIC50 stays under 8, and Met if its pIC50 is 8 or above.

Hello, I need to know if COC1CCN(C(=O)Cn2cc(-c3nc([C@@](C)(c4ccc(-c5cnc(N)nc5)nc4)C(C)C)no3)cn2)CC1 has measured pIC50 not below 8. Thanks!
Not met

Hello, I need to know if CC(C)[C@@](C)(c1ccc(-c2cnc(N)nc2)nc1)c1noc(-c2cnc(NC(C)(C)CO)cn2)n1 has measured pIC50 not below 8. Thanks!
Not met

Hello, I need to know if CC(C)C(C)(c1ccc(-c2cnc(N)nc2)nc1)c1noc(-c2cnn(CCF)c2)n1 (stereo not drawn) has measured pIC50 not below 8. Thanks!
Met

Hello, I need to know if CC(c1ccc(-c2ccc(N)nc2)nc1)(c1noc(-c2cn[nH]c2)n1)C1CC1 (stereo not drawn) has measured pIC50 not below 8. Thanks!
Not met

Hello, I need to know if CC(C)[C@](C)(c1ccc(-c2cnc(N)nc2)nc1)c1noc(-c2cnn(CC(=O)NCC3CCCO3)c2)n1 (stereo partly drawn) has measured pIC50 not below 8. Thanks!
Not met

Hello, I need to know if CC(C)C(C)(c1ccc(-c2cnc(N)nc2)nc1)c1noc(-c2cnc(NC(C)(C)CO)cn2)n1 (stereo not drawn) has measured pIC50 not below 8. Thanks!
Met

Hello, I need to know if C[C@@](c1ccc(-c2cnc(N)cn2)nc1)(c1noc(-c2cnn(CC#N)c2)n1)C1CC1 has measured pIC50 not below 8. Thanks!
Not met

Hello, I need to know if C[C@](c1ccc(-c2ccc(N)nc2)nc1)(c1noc(-c2cnn(C3COC3)c2)n1)C1CC1 has measured pIC50 not below 8. Thanks!
Not met
